tested on: NCI-H196 SCLC complex tumor spheroid viability; assay: Anticancer human tumor NCI-H196 cell line growth inhibition; conditions: second compound 0.003 µM; first compound 0.316 µM; stronger effect = lower value;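 further: spheroids exposed to compounds for 7 days before readout; 100% = DMSO vehicle control wells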
Catalogue of viability, T/C values

{"molecule": "CC1COCCN1c1cc(-c2ccnn2C)c2ccnc(-c3ccn[nH]3)c2n1 (stereo not given) + COc1cc2c(cc1O)CCNC21CSC2c3c(OC(C)=O)c(C)c4c(c3C(COC1=O)N1C(O)C3Cc5cc(C)c(OC)c(O)c5C(C21)N3C)OCO4", "endpoint_unit": "%", "viability, T/C": 10.1}
{"molecule": "Cc1cc(C)c(CNC(=O)c2cc(-c3ccc(CN4CCOCC4)cc3)cc3c2cnn3C2CCCC2)c(=O)[nH]1 + COc1cc2c(cc1O)CCNC21CSC2c3c(OC(C)=O)c(C)c4c(c3C(COC1=O)N1C(O)C3Cc5cc(C)c(OC)c(O)c5C(C21)N3C)OCO4", "endpoint_unit": "%", "viability, T/C": 9.74}
{"molecule": "CC(C)n1c(=O)n(C)c2cnc3cc(F)c(-c4ccc(OCCCN5CCCCC5)nc4)cc3c21 + COc1cc2c(cc1O)CCNC21CSC2c3c(OC(C)=O)c(C)c4c(c3C(COC1=O)N1C(O)C3Cc5cc(C)c(OC)c(O)c5C(C21)N3C)OCO4", "endpoint_unit": "%", "viability, T/C": 9.42}
{"molecule": "COc1ccc([C@@H](O)c2cc(-c3ncnc4cc(N5CCOCC5)ccc34)c(F)cc2Cl)nn1 + COc1cc2c(cc1O)CCNC21CSC2c3c(OC(C)=O)c(C)c4c(c3C(COC1=O)N1C(O)C3Cc5cc(C)c(OC)c(O)c5C(C21)N3C)OCO4", "endpoint_unit": "%", "viability, T/C": 3.43}
{"molecule": "CC1COCCN1c1cc(-c2ccnn2C)c2ccnc(-c3ccn[nH]3)c2n1 (stereo not given) + CC[C@@]1(O)C(=O)OCc2c1cc1n(c2=O)Cc2cc3c(CN(C)C)c(O)ccc3nc2-1", "endpoint_unit": "%", "viability, T/C": 68.1}

* * *

tested on: NCI-H196 SCLC complex tumor spheroid viability; assay: Anticancer human tumor NCI-H196 cell line growth inhibition; settings: second compound 0.003 µM; first compound 0.316 µM; stronger effect = lower value;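 further: spheroids exposed to compounds for 7 days before readout; 100% = DMSO vehicle control wells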
Listed next: entries and their corresponding viability, T/C.

{"molecule": "[2H]c1nc(C)nc([2H])c1-c1cc(NC[C@@H](C)c2cccc3c(C(=O)NC)ccnc23)ncn1 + CC[C@@]1(O)C(=O)OCc2c1cc1n(c2=O)Cc2cc3c(CN(C)C)c(O)ccc3nc2-1", "viability, T/C": "92.5%"}
{"molecule": "[2H]c1nc(C)nc([2H])c1-c1cc(NC[C@@H](C)c2cccc3c(C(=O)NC)ccnc23)ncn1 + COc1cc2c(cc1O)CCNC21CSC2c3c(OC(C)=O)c(C)c4c(c3C(COC1=O)N1C(O)C3Cc5cc(C)c(OC)c(O)c5C(C21)N3C)OCO4", "viability, T/C": "3.96%"}
{"molecule": "CC(C)n1c(=O)n(C)c2cnc3cc(F)c(-c4ccc(OCCCN5CCCCC5)nc4)cc3c21 + CC[C@@]1(O)C(=O)OCc2c1cc1n(c2=O)Cc2cc3c(CN(C)C)c(O)ccc3nc2-1", "viability, T/C": "105%"}
{"molecule": "Cc1cc(C)c(CNC(=O)c2cc(-c3ccc(CN4CCOCC4)cc3)cc3c2cnn3C2CCCC2)c(=O)[nH]1 + CC[C@@]1(O)C(=O)OCc2c1cc1n(c2=O)Cc2cc3c(CN(C)C)c(O)ccc3nc2-1", "viability, T/C": "102%"}
